Listed next: entries and their corresponding thermal shift delta Tm.
System: LOC_OS01G63280-cb003;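 further: purified Escherichia coli-expressed rice kinase domain construct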
experiment.description: thermal shift delta Tm vs DMSO control; higher = stronger stabilization (binding)
assay.context: 12.5 µM; protein concentration 2 µM
The response must be a number in °C with no trailing unit.

c1cc(-c2cnn3cc(-c4ccc(OCCN5CCCCC5)cc4)cnc23)ccn1 [Dorsomorphin 2HCl]
1.5
C=CC(=O)Nc1cccc(C)c1Nc1ncc2cc(-c3c(Cl)c(OC)cc(OC)c3Cl)ccc2n1
-0.06
O=C(O)c1ccc(-c2c[nH]c3ncc(-c4ccccc4)cc23)cc1C1CCCC1
2.57
CCCCCCCCCCCCCCCCn1cc[n+](Cc2ccccc2)c1C
-7.84
C[C@]1(O)C[C@@H](c2nc(-c3ccc4ccc(-c5ccccc5)nc4c3)c3c(N)nccn32)C1
2.13

Next up:
Ask: Entry CN1CCC(Nc2nc(Nc3ccc(Oc4ccccc4)cc3)c3c(=O)[nH]cc(Br)c3n2)CC1 : reported thermal shift delta Tm = ?
Reply: 0.86
